From: patent US11952365B2

# IC50 per entry
Molecular target: 3CLpro (Severe acute respiratory syndrome coronavirus 2, UniProt P0DTD1)
Test: SARS-CoV-2 3CLpro protease assay (duplex, SAMDI-MS)
Format: biochemical
Set-up: For the duplex assay, 3CLpro and HRV3C was added
Conditions: 3CLpro, 30 mins preincubation, class symbols; read-out: SARS-Cov-2 IC50

O=C(NC1CC1)C(=O)[C@H](C[C@@H]1CCNC1=O)NC(=O)[C@@H]1CC2(CCN1C(=O)c1cc3c(Cl)cc(Cl)cc3[nH]1)CC2 | 20 to 200 nM

**Q:** What does the data say about its IC50? Entry: COc1cccc2[nH]c(C(=O)N3C[C@]4(C[C@H]3C(=O)NC(C[C@@H]3CCCNC3=O)C(=O)C(=O)NCc3ccccc3)CC4(F)F)cc12 (stereo partly drawn)
**A:** 20 to 200 nM

**Q:** What does the data say about its IC50? Entry: CC(C)OCCNC(=O)C(=O)[C@H](C[C@@H]1CCNC1=O)NC(=O)[C@@H]1[C@H]2CCC[C@H]2CN1C(=O)c1cc2c(Cl)cc(Cl)cc2[nH]1
**A:** 20 to 200 nM

**Q:** What does the data say about its IC50? Entry: CO[C@@H]1C[C@@H](C(=O)NC(C[C@@H]2CCNC2=O)C(=O)C(=O)NCc2ccccc2)N(C(=O)c2cc3ccccc3[nH]2)C1 (stereo partly drawn)
**A:** 2000 to 20000 nM

**Q:** What does the data say about its IC50? Entry: C=CC[C@@H]1C[C@@H](C(=O)N[C@@H](C[C@@H]2CCNC2=O)C(=O)C(=O)NCc2ccccc2)N(C(=O)c2cc3ccccc3[nH]2)C1
**A:** 200 to 2000 nM

**Q:** What does the data say about its IC50? Entry: O=C[C@H](C[C@@H]1CCCNC1=O)NC(=O)[C@@H]1[C@H]2CCC[C@H]2CN1C(=O)c1cc2ccccc2[nH]1
**A:** < 20 nM
